system: Staphylococcus epidermidis ATCC 12228
Provide the recorded MIC for the entries that follow.

Worked cases, MIC given:
{"columns": ["MOL", "MEASUREMENT TARGET", "MIC"],
 "data": [
  ["CC[C@H](C)[C@H](NC(=O)[C@H](CC(=O)O)NC(=O)[C@H](CS)NC(=O)[C@@H](NC(=O)[C@@H](N)C(C)C)[C@@H](C)O)C(=O)N[C@@H](CC(C)C)C(=O)N[C@@H](CO)C(=O)N[C@H](C(=O)N[C@@H](CCC(=O)O)C(=O)N[C@@H](C)C(=O)N[C@@H](CCCCN)C(=O)NCC(=O)N[C@H](C(=O)N[C@@H](CCCCN)C(=O)N[C@@H](CC(C)C)C(N)=O)C(C)C)C(C)C", "Staphylococcus epidermidis ATCC 12228", "> 63.5 µM"],
  ["CC(C)C[C@H](NC(=O)CNC(=O)[C@H](CCCCN)NC(=O)[C@H](CC(C)C)NC(=O)[C@H](CC(C)C)NC(=O)[C@H](CCCCN)NC(=O)[C@@H](N)CCCCN)C(=O)N[C@@H](CC(C)C)C(=O)N[C@@H](CCCCN)C(=O)NCC(=O)N[C@@H](Cc1c[nH]c2ccccc12)C(N)=O", "Staphylococcus epidermidis ATCC 12228", "> 128 µM"]
]}

Then there is this compound:
(Q) Please state recorded MIC (tested on Staphylococcus epidermidis ATCC 12228) of CC(C)C[C@H](NC(=O)CNC(=O)[C@H](CC(C)C)NC(=O)[C@H](Cc1c[nH]c2ccccc12)NC(=O)[C@H](CC(C)C)NC(=O)CNC(=O)[C@H](CC(C)C)NC(=O)[C@H](CCCCN)NC(=O)[C@H](CCCCN)NC(=O)CN)C(=O)N[C@@H](CCCCN)C(=O)N[C@@H](CCCCN)C(=O)NCC(N)=O
(A) > 128 µM
